Assay: Solubility of compound of Formula (I) in water, buffers and surfactant solutions
Format: physicochemical
Conditions: 50% w/v Poloxamer 188 in water, pH 7.23, aqueous with cosolvent or surfactant or cyclodextrin, thermodynamic from solid, 50% w/v Poloxamer 188 in water; pH after equilibration 7.23; read-out: Solubility Average (n = 2)
experimental.endpoint: solubility (µg/mL)
Quick reminder: number only, in µg/mL, skip the unit.

Query: For the molecule Cn1c(=O)c2c(ncn2CC(=O)Nc2ccc(-c3ccccc3)nn2)n(C)c1=O [compound of Formula (I)] , give its reported solubility.
Response: 9.63

====

Assay: Solubility of compound of Formula (I) in water, buffers and surfactant solutions
Format: physicochemical
Conditions: 50% w/v Poloxamer 188 in water, pH 7.23, aqueous with cosolvent or surfactant or cyclodextrin, thermodynamic from solid, 50% w/v Poloxamer 188 in water; pH after equilibration 7.23; read-out: Solubility Sample-1
experimental.endpoint: solubility (µg/mL)
Entry rule: numbers only, all in µg/mL.

Query: # return recorded solubility for entry Cn1c(=O)c2c(ncn2CC(=O)Nc2ccc(-c3ccccc3)nn2)n(C)c1=O [compound of Formula (I)]
Response: 10.9

====

Assay: Solubility of compound of Formula (I) in water, buffers and surfactant solutions
Format: physicochemical
Conditions: 5% w/v PVP K 30 in water, pH 3.96, aqueous with cosolvent or surfactant or cyclodextrin, thermodynamic from solid, 5% w/v PVP K 30 in water; pH after equilibration 3.96; read-out: Solubility Average (n = 2)
experimental.endpoint: solubility
Kindly format the answer as number then unit.

Query: Name the recorded solubility of the compound listed here: Cn1c(=O)c2c(ncn2CC(=O)Nc2ccc(-c3ccccc3)nn2)n(C)c1=O [compound of Formula (I)]
Response: 15.8 µg/mL

====

Test: Solubility of compound of Formula (I) in water, buffers and surfactant solutions
Assay type: physicochemical
Conditions: 2% w/v Tween 80 in pH 3.0 buffer, pH 3, aqueous with cosolvent or surfactant or cyclodextrin, thermodynamic from solid, 2% w/v Tween 80 in pH 3.0 buffer; pH after equilibration 3.16; read-out: Solubility Sample-1
experimental.endpoint: solubility

Query: Give the measured solubility for Cn1c(=O)c2c(ncn2CC(=O)Nc2ccc(-c3ccccc3)nn2)n(C)c1=O
Response: 23.8 µg/mL

====

Assay: Solubility of compound of Formula (I) in water, buffers and surfactant solutions
Type: physicochemical
Details: water, in water; read-out: solubility
experimental.endpoint: solubility

Query: Answer with the recorded solubility of Cn1c(=O)c2c(ncn2CC(=O)Nc2ccc(-c3ccccc3)nn2)n(C)c1=O only.
Response: < 6 µg/mL

====

Experiment: Solubility of compound of Formula (I) in water, buffers and surfactant solutions
Assay type: physicochemical
Details: 5% w/v PVP K 30 in water, pH 3.96, aqueous with cosolvent or surfactant or cyclodextrin, thermodynamic from solid, 5% w/v PVP K 30 in water; pH after equilibration 3.96; read-out: Solubility Sample-2
experimental.endpoint: solubility (µg/mL)
State the answer as a number, implicitly in µg/mL.

Query: Please supply the value of reported solubility for the item Cn1c(=O)c2c(ncn2CC(=O)Nc2ccc(-c3ccccc3)nn2)n(C)c1=O
Response: 13.5

====

Assay: Solubility of compound of Formula (I) in water, buffers and surfactant solutions
Format: physicochemical
Details: hydrochloric acid buffer, pH 1.2, simulated gastric fluid, thermodynamic from solid, pH 1.2 (Hydrochloric acid buffer); read-out: Solubility Sample-1
experimental.endpoint: solubility (µg/mL)
Return type: number; implicit unit µg/mL.

Query: Output solubility of Cn1c(=O)c2c(ncn2CC(=O)Nc2ccc(-c3ccccc3)nn2)n(C)c1=O
Response: 20.8

====

Test: Solubility of compound of Formula (I) in water, buffers and surfactant solutions
Type: physicochemical
Settings: hydrochloric acid buffer, pH 1.2, simulated gastric fluid, thermodynamic from solid, pH 1.2 (Hydrochloric acid buffer); read-out: Solubility Average (n = 2)
experimental.endpoint: solubility (µg/mL)
Number in µg/mL, nothing else.

Query: # return recorded solubility for input Cn1c(=O)c2c(ncn2CC(=O)Nc2ccc(-c3ccccc3)nn2)n(C)c1=O
Response: 20.8

====

Experiment: Solubility of compound of Formula (I) in water, buffers and surfactant solutions
Assay type: physicochemical
Settings: 5% w/v PVP K 30 in water, pH 3.96, aqueous with cosolvent or surfactant or cyclodextrin, thermodynamic from solid, 5% w/v PVP K 30 in water; pH after equilibration 3.96; read-out: Solubility Sample-1
experimental.endpoint: solubility

Query: Let me know recorded solubility for Cn1c(=O)c2c(ncn2CC(=O)Nc2ccc(-c3ccccc3)nn2)n(C)c1=O [compound of Formula (I)] , thanks.
Response: 18.1 µg/mL

====

Assay: Solubility of compound of Formula (I) in water, buffers and surfactant solutions
Type: physicochemical
Conditions: 2% w/v SLS in water, pH 8.82, aqueous with cosolvent or surfactant or cyclodextrin, thermodynamic from solid, 2% w/v SLS is water; pH after equilibration 8.82; read-out: Solubility Sample-2
experimental.endpoint: solubility (µg/mL)
Unit µg/mL implied. Number only.

Query: Give recorded solubility. Cn1c(=O)c2c(ncn2CC(=O)Nc2ccc(-c3ccccc3)nn2)n(C)c1=O [compound of Formula (I)]
Response: 429

====

Experiment: Solubility of compound of Formula (I) in water, buffers and surfactant solutions
Assay type: physicochemical
Conditions: 28% w/v SLS in pH 3.0 buffer, pH 3, aqueous with cosolvent or surfactant or cyclodextrin, thermodynamic from solid, 28% w/v SL.S in pH 3.0 baffer; pH after equilibration 2.95; read-out: Solubility Average (n = 2)
experimental.endpoint: solubility (µg/mL)
Quick reminder: number only, in µg/mL, skip the unit.

Query: Determine its reported solubility: Cn1c(=O)c2c(ncn2CC(=O)Nc2ccc(-c3ccccc3)nn2)n(C)c1=O
Response: 404

====

Test: Solubility of compound of Formula (I) in water, buffers and surfactant solutions
Type: physicochemical
Settings: pH 2, simulated gastric fluid, At pH 2; read-out: solubility
experimental.endpoint: solubility

Query: Fill in solubility for record Cn1c(=O)c2c(ncn2CC(=O)Nc2ccc(-c3ccccc3)nn2)n(C)c1=O
Response: ~8.4 µg/mL

====

Test: Solubility of compound of Formula (I) in water, buffers and surfactant solutions
Format: physicochemical
Details: 59% w/v Poloxamer 188 in pH 3.0 buffer, pH 3, aqueous with cosolvent or surfactant or cyclodextrin, thermodynamic from solid, 59% w/v Poloxamer 188 in pH 3.0 buffer; pH after equilibration 3.30; read-out: Solubility Sample-2
experimental.endpoint: solubility (mg/mL)
Report the figure in mg/mL without appending any unit label.

Query: Return solubility (reported value) for this molecule: Cn1c(=O)c2c(ncn2CC(=O)Nc2ccc(-c3ccccc3)nn2)n(C)c1=O
Response: 0.0179

====

Experiment: Solubility of compound of Formula (I) in water, buffers and surfactant solutions
Assay type: physicochemical
Conditions: 20% w/v SLS in pH 1.2 buffer, pH 1.2, aqueous with cosolvent or surfactant or cyclodextrin, thermodynamic from solid, 20% w/v SLSixpB 1.2 buffer; pH after equilibration 1.33; read-out: Solubility Average (n = 2)
experimental.endpoint: solubility (µg/mL)
Express your answer in µg/mL, writing the number without its unit.

Query: Complete the entry with solubility for Cn1c(=O)c2c(ncn2CC(=O)Nc2ccc(-c3ccccc3)nn2)n(C)c1=O
Response: 2020

====

Experiment: Solubility of compound of Formula (I) in water, buffers and surfactant solutions
Type: physicochemical
Conditions: 20% w/v SLS in pH 1.2 buffer, pH 1.2, aqueous with cosolvent or surfactant or cyclodextrin, thermodynamic from solid, 20% w/v SLSixpB 1.2 buffer; pH after equilibration 1.33; read-out: Solubility Sample-1
Description: In water, compound of Formula (I) has a solubility of about 6 μg/mL. At pH 6, the solubility is about 5 μg/mL.
experimental.endpoint: solubility (µg/mL)
Numeric answer only, unit µg/mL assumed.

Query: For the compound Cn1c(=O)c2c(ncn2CC(=O)Nc2ccc(-c3ccccc3)nn2)n(C)c1=O , give its reported solubility.
Response: 1860

====

Experiment: Solubility of compound of Formula (I) in water, buffers and surfactant solutions
Assay type: physicochemical
Settings: water, In water; read-out: solubility
experimental.endpoint: solubility

Query: Give recorded solubility. Cn1c(=O)c2c(ncn2CC(=O)Nc2ccc(-c3ccccc3)nn2)n(C)c1=O
Response: ~6 µg/mL

====

Assay: Solubility of compound of Formula (I) in water, buffers and surfactant solutions
Format: physicochemical
Conditions: pH 6, aqueous buffer, At pH 6; read-out: solubility
experimental.endpoint: solubility

Query: Return value of solubility for input Cn1c(=O)c2c(ncn2CC(=O)Nc2ccc(-c3ccccc3)nn2)n(C)c1=O , no commentary.
Response: ~5 µg/mL

====

Experiment: Solubility of compound of Formula (I) in water, buffers and surfactant solutions
Assay type: physicochemical
Conditions: citrate buffer, pH 3, aqueous buffer, thermodynamic from solid, pH 3.0 (Citrate buffer); read-out: Solubility Average (n = 2)
experimental.endpoint: solubility (µg/mL)
Answer with a number only, understood to be in µg/mL.

Query: Give the reported value of solubility for this record: Cn1c(=O)c2c(ncn2CC(=O)Nc2ccc(-c3ccccc3)nn2)n(C)c1=O
Response: 7.77
